- METHOD: Apparent permeability across apical to basolateral side in human Caco-2 cells at pH 7.4 in the presence of 1% BSA
- Type: ADME, cell-based
- TEST_PARAMETERS: Caco-2, pH 7.4
OUTCOME_MEASURE: Papp A→B (×10⁻⁶ cm/s)
Reply numerically in ×10⁻⁶ cm/s, unit not repeated.

Asked: What Papp A→B value was documented for this compound, COc1ccc(C(=O)Nc2cccc([C@]3(C)O[C@H]4CO[C@@H]5N4[C@H]3O[C@@]5(C)c3cccc(NC(=O)c4ccc(OC)cc4)c3)c2)cc1 ?
Given back: 1.4

---

- ASSAYED_SYSTEM: Orexin/Hypocretin receptor type 1 (Homo sapiens)
- Sequence (O43613 whole entry): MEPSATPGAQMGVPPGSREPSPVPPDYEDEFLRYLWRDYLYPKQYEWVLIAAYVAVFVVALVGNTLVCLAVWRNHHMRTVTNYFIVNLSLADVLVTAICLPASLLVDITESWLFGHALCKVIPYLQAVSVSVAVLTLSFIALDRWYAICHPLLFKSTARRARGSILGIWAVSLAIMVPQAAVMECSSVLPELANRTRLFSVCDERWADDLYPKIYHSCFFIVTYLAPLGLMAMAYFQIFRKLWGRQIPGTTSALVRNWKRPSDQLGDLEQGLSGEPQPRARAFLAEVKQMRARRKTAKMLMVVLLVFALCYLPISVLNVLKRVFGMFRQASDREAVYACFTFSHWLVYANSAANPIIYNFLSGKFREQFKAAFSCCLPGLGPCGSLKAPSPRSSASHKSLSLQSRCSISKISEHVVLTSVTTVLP
- METHOD: Antagonist activity at human OX1R expressed in CHO-K1 cells assessed as inhibition of orexin-A-induced increase in calcium mobilization preincubated for 15 mins followed orexin-A stimulation by Fura-2-AM dye based fluorescence assay
The entries below come with measured pKi values attached.
Here pKi is given on a logarithmic scale as minus log10 of the concentration in mol/L.

COc1ccc(C(=O)Nc2cccc([C@]3(C)O[C@H]4CO[C@@H]5N4[C@H]3O[C@@]5(C)c3cccc(NC(=O)c4ccc(OC)cc4)c3)c2)cc1    8.40

Asked: What pKi value was documented for this compound, C[C@]1(c2cccc(NC(=O)c3cccnc3)c2)O[C@H]2CO[C@@H]3N2[C@H]1O[C@]3(C)c1cccc(NC(=O)c2cccnc2)c1 ?
Given back: 7.28

Asked: What pKi value was documented for this compound, COc1cccc(C(=O)Nc2cccc([C@@]3(C)O[C@H]4CO[C@@H]5N4[C@H]3O[C@]5(C)c3cccc(NC(=O)c4cccc(OC)c4)c3)c2)c1 ?
Given back: 8.54

---

- METHOD: Passive apparent permeability in MDCK cells
- Type: ADME, cell-based, Canis lupus familiaris
- TEST_PARAMETERS: dog
OUTCOME_MEASURE: Papp

Asked: What Papp value was documented for this molecule, COc1ccc(C(=O)Nc2cccc([C@@]3(C)O[C@H]4CO[C@@H]5N4[C@H]3O[C@]5(C)c3cccc(NC(=O)c4ccc(OC)cc4)c3)c2)cc1 ?
Given back: > 10 ×10⁻⁶ cm/s

---

- ASSAYED_SYSTEM: Orexin receptor type 2 (Homo sapiens, UniProt O43614)
- Sequence (O43614 whole entry): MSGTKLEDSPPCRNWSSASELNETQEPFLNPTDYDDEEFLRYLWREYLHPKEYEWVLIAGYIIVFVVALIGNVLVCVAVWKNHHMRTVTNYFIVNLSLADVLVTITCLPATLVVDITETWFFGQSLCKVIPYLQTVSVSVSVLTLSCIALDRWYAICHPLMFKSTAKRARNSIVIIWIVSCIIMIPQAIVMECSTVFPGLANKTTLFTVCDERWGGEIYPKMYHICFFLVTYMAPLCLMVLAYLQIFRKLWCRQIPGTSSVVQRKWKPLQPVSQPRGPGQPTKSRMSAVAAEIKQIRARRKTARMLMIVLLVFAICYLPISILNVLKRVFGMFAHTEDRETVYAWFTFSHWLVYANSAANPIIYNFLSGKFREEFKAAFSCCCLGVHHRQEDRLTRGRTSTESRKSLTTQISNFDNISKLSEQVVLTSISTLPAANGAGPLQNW
- METHOD: Antagonist activity at human OX2R expressed in CHO-K1 cells assessed as inhibition of orexin-A-induced increase in calcium mobilization preincubated for 15 mins followed orexin-A stimulation by Fura-2-AM dye based fluorescence assay
The entries below come with measured IC50 values attached.

Answered cases to consult:
C[C@]1(c2cccc(NC(=O)c3ccccc3)c2)O[C@H]2CO[C@@H]3N2[C@H]1O[C@]3(C)c1cccc(NC(=O)c2ccccc2)c1    > 10 µM
C[C@]1(c2cccc(NC(=O)c3ccccn3)c2)O[C@H]2CO[C@@H]3N2[C@H]1O[C@]3(C)c1cccc(NC(=O)c2ccccn2)c1    > 10 µM
CN(C)c1ccc(C(=O)Nc2cccc([C@]3(C)O[C@H]4CO[C@@H]5N4[C@H]3O[C@@]5(C)c3cccc(NC(=O)c4ccc(N(C)C)cc4)c3)c2)cc1    > 10 µM
COc1cccc(C(=O)Nc2cccc([C@@]3(C)O[C@H]4CO[C@@H]5N4[C@H]3O[C@]5(C)c3cccc(NC(=O)c4cccc(OC)c4)c3)c2)c1    > 10 µM
CN(C)c1ccccc1C(=O)Nc1cccc([C@@]2(C)O[C@H]3CO[C@@H]4N3[C@H]2O[C@]4(C)c2cccc(NC(=O)c3ccccc3N(C)C)c2)c1    > 10 µM
C[C@]1(c2cccc(NC(=O)c3cccnc3)c2)O[C@H]2CO[C@@H]3N2[C@H]1O[C@]3(C)c1cccc(NC(=O)c2cccnc2)c1    > 10 µM
CN(C)c1ccc(C(=O)Nc2cccc([C@@]3(C)O[C@H]4CO[C@@H]5N4[C@H]3O[C@]5(C)c3cccc(NC(=O)c4ccc(N(C)C)cc4)c3)c2)cc1    > 10 µM
CN(C)c1ccccc1C(=O)Nc1cccc([C@]2(C)O[C@H]3CO[C@@H]4N3[C@H]2O[C@@]4(C)c2cccc(NC(=O)c3ccccc3N(C)C)c2)c1    > 10 µM
CN(C)c1cccc(C(=O)Nc2cccc([C@]3(C)O[C@H]4CO[C@@H]5N4[C@H]3O[C@@]5(C)c3cccc(NC(=O)c4cccc(N(C)C)c4)c3)c2)c1    > 10 µM
CN(C)c1cccc(C(=O)Nc2cccc([C@@]3(C)O[C@H]4CO[C@@H]5N4[C@H]3O[C@]5(C)c3cccc(NC(=O)c4cccc(N(C)C)c4)c3)c2)c1    > 10 µM

Let us examine a further case.
Asked: For Orexin receptor type 2 (Homo sapiens, UniProt O43614), provide IC50 of C[C@]1(c2cccc(NC(=O)c3ccncc3)c2)O[C@H]2CO[C@@H]3N2[C@H]1O[C@]3(C)c1cccc(NC(=O)c2ccncc2)c1 please.
Given back: > 10 µM
